As shown below, each of these compounds has a reported IC50 value.
- Tested on: Toxoplasma gondii
- ASSAY_COMMENT: MMV: A total of 100ul of inoculum was added to each well (parasite/cell ratio, ~10:1; final volume, 200 ul). Six hours after inoculation, nonadherent parasites were removed, and 100 ul of complete DMEM (1% penicillin-streptomycin, 3% FBS) supplemented with inhibitors at different concentrations (2-fold serial dilutions starting from 30 uM) was added to all except the negative-control wells. Positive controls, consisting of pyrimethamine (PYR) and sulfadiazine (SDZ) (20-mg/ml stocks in DMSO), were tested at a 2mg/ml final concentration. Each test was performed in triplicate.
- Type: functional, organism-based
- ASSAY_CONDITIONS: 6 h

Example compounds with recorded IC50:
# COMPOUND, IC50
data = [
    ("COc1cc2cc(C(=O)Nc3ccccc3)c(N)nc2cc1OC", "> 30 µM"),
    ("Cc1cccc(-n2ncc3c(O)nc(-n4nc(C)cc4NC(=O)c4cc5ccccc5o4)nc32)c1", "> 30 µM"),
]

Input line: Look up and report measured IC50 for this entry: COCCNC(=O)c1ccc(OC2CCN(Cc3ccc(F)c(F)c3)CC2)c(Cl)c1
Output line: > 30 µM

Input line: Look up and report measured IC50 for this entry: CCCCc1c(CCC)c(=N)c2ccccc2n1C
Output line: > 30 µM

Input line: Look up and report measured IC50 for this entry: COc1ccc(N2CCN(C(CNC(=O)C3CCCCC3)c3ccc4c(c3)OCO4)CC2)cc1 (stereo unspecified)
Output line: 26.6 µM

Input line: Look up and report measured IC50 for this entry: Cc1cc(N2CCCC2)nc(Nc2ccc(NC(=O)CCc3ccccc3)cc2)n1
Output line: > 30 µM

====

- System: Toxoplasma gondii
- ASSAY_COMMENT: MMV: A total of 100ul of inoculum was added to each well (parasite/cell ratio, ~10:1; final volume, 200 ul). Six hours after inoculation, nonadherent parasites were removed, and 100 ul of complete DMEM (1% penicillin-streptomycin, 3% FBS) supplemented with inhibitors at different concentrations (2-fold serial dilutions starting from 30 uM) was added to all except the negative-control wells. Positive controls, consisting of pyrimethamine (PYR) and sulfadiazine (SDZ) (20-mg/ml stocks in DMSO), were tested at a 2mg/ml final concentration. Each test was performed in triplicate.
- Format: functional, organism-based
- ASSAY_CONDITIONS: 6 h
QUANTITY_KIND: IC50

# COMPOUND, TGT, IC50
records = [
    ("COc1ccc(C(=O)NC(c2ccccc2Cl)c2cc(Cl)c3cccnc3c2O)cc1 (configuration not stated)", "Toxoplasma gondii", "> 30 µM"),
    ("CCOC(=O)c1cn(CC)c2cc(N(C)CCc3ccc(OC)c(OC)c3)c(F)cc2c1=O", "Toxoplasma gondii", "> 30 µM"),
]

Now let's try a different one.
Input line: Look up and report measured IC50 for this entry: Cc1ccccc1OCCSc1nc2ccc(NC(=O)c3ccccc3)cc2s1
Output line: > 30 µM

====

- Tested on: Toxoplasma gondii
- ASSAY_COMMENT: MMV: A total of 100ul of inoculum was added to each well (parasite/cell ratio, ~10:1; final volume, 200 ul). Six hours after inoculation, nonadherent parasites were removed, and 100 ul of complete DMEM (1% penicillin-streptomycin, 3% FBS) supplemented with inhibitors at different concentrations (2-fold serial dilutions starting from 30 uM) was added to all except the negative-control wells. Positive controls, consisting of pyrimethamine (PYR) and sulfadiazine (SDZ) (20-mg/ml stocks in DMSO), were tested at a 2mg/ml final concentration. Each test was performed in triplicate.
- Assay type: functional, organism-based
- ASSAY_CONDITIONS: 6 h
QUANTITY_KIND: IC50

Example molecules with recorded IC50:
# MOLECULE, IC50
measured = [
    ("COc1cccc(Nc2nc(N)c3ccccc3n2)c1", "28.1 µM"),
    ("COc1cccc(C=Cc2nc(=O)c3ccccc3o2)c1OC", "> 30 µM"),
    ("CCCCc1c(C)nc2c(OC)cccc2c1O", "> 30 µM"),
    ("CCOC(=O)C1=CN(C)C=C(C(=O)OCC)C1c1cc(Br)c(OCC)c(OC)c1", "> 30 µM"),
    ("CC1CCN(Cc2ccc(NC(=O)c3cc4ccc5cccnc5c4[nH]3)cc2)CC1", "> 30 µM"),
]

Now let's try a different one.
Input line: # return IC50 for O=C1c2ccccc2C2=Nc3ccccc3SC(c3cccc(F)c3)C12 (stereo unspecified) , test system: Toxoplasma gondii
Output line: 18.7 µM
